test-method-notes: FIG. 14
study-conditions: C57BL/6, mouse, in vivo, ip, 2 mg/kg
assay-readout: Cmax

q: For C=C[C@H](C)C[C@@H]1NC(=O)[C@H]([C@H](O)C(C)C)N(C)C(=O)[C@H](C)N(C)C(=O)[C@@H]([C@@H](C)CC)NC(=O)[C@@H]([C@H](O)C(C)C)NC(=O)[C@H]2CCCCN2C(=O)[C@H](C)N(C)C1=O [SRA3] , what is its reported Cmax?
a: 86.6 ng/mL

---

test-method-notes: FIG. 14
study-conditions: C57BL/6, mouse, in vivo, ip, 2 mg/kg
Method: Table printed on a drawing sheet, FIG. 14 The patent's description of the figure: FIG. 14. SRA3 pharmacokinetic data. PK studies were performed in C57BL/6 mice First reader's note: IP route is given in the head cell of the first column; the plot legend on the same sheet prints IP 2 mg/kg in mouse.
assay-readout: half-life (h)
Answers are plain numbers, in h.

q: For C=C[C@H](C)C[C@@H]1NC(=O)[C@H]([C@H](O)C(C)C)N(C)C(=O)[C@H](C)N(C)C(=O)[C@@H]([C@@H](C)CC)NC(=O)[C@@H]([C@H](O)C(C)C)NC(=O)[C@H]2CCCCN2C(=O)[C@H](C)N(C)C1=O [SRA3] , what is its reported half-life?
a: 8.21

---

test-method-notes: FIG. 14
study-conditions: C57BL/6, mouse, in vivo, iv, 2 mg/kg
assay-readout: C0 (ng/mL)
Give bare numbers, in ng/mL.

q: For `C=C[C@H](C)C[C@@H]1NC(=O)[C@H]([C@H](O)C(C)C)N(C)C(=O)[C@H](C)N(C)C(=O)[C@@H]([C@@H](C)CC)NC(=O)[C@@H]([C@H](O)C(C)C)NC(=O)[C@H]2CCCCN2C(=O)[C@H](C)N(C)C1=O` , what is its reported C0?
a: 204
